Recorded GI50 by entry
# Tested on: Malme-3M
# assay info: NCI tumour cell line growth inhibition, 48 h
Calls of active or inactive are those of the source. Cut-off read from the data, not from the text of the source: active = GI50 up to about 1.1 µM and inactive = higher.

NCCNCC1CCNCC1 : > 100 µM (inactive)
CC(C)COC(=O)N1N=NC2C3OC(CC3=O)C21 (stereo not drawn) : > 100 µM (inactive)
N#CC1=C(N)N2C(=O)/C(=C/c3ccccc3)SC2C(c2nc3ccccc3[nH]2)=C1c1ccccc1 (stereo not drawn) : 1.75 µM (inactive)
O=C(NCCc1ccccn1)c1ccc2cc(C(=O)N3CC(CCl)c4ccc([N+](=O)[O-])cc43)[nH]c2c1 (stereo not drawn) : 10.9 µM (inactive)

**Q:** # GI50 lookup, item Cc1ccc(C(=O)/C=C(O)/C(O)=C/C(=O)c2ccc(C)cc2C)c(C)c1
**A:** 1.86 µM (inactive)

**Q:** # repeat for O=C1C(Br)=C(C2=CC(=P(c3ccccc3)(c3ccccc3)c3ccccc3)C=C2)C(=O)C(Br)=C1C1=CC(=P(c2ccccc2)(c2ccccc2)c2ccccc2)C=C1
**A:** 18.3 µM (inactive)

**Q:** # repeat for C=CCOC(=O)C1CCC(=O)N1C(=O)C(Cl)Cl (stereo not drawn)
**A:** > 100 µM (inactive)

**Q:** # repeat for CN1CCCCC1CCN1c2ccccc2Sc2ccc([S+](C)[O-])cc21 (stereo not drawn)
**A:** > 100 µM (inactive)

====

# Tested on: TK-10
# assay info: NCI tumour cell line growth inhibition, 48 h
Activity calls are given as the source filed them. Rule as the data show it: active = GI50 up to about 1.1 µM and inactive = higher.
Just give me one of these, please: active, inactive

Observe how each entry below is paired with its result.
CC(=O)O[C@H]1C(=O)[C@@]2(C)[C@H]([C@H](OC(=O)c3ccccc3)[C@]3(O)C[C@H](OC(=O)[C@H](O)[C@@H](NC(=O)c4ccccc4)c4ccccc4)C(C)=C1C3(C)C)[C@]1(OC(C)=O)CO[C@@H]1C[C@@H]2O : active
Cc1cc(N(CCC#N)S(=O)(=O)c2ccccc2)ccc1/C=C1N=C(/C=C/c2ccccc2)OC\1=O : inactive

**Q:** Hi, sorry to bother you, what did the test record for O=c1ccn2n1CCCCC2 ?
**A:** inactive

**Q:** # repeat for CC#CC(=O)SCCNC(=O)CC
**A:** inactive

**Q:** # repeat for O=C1NCN(c2ccccc2)C12CCN(CCCN1CCN(CCOC(c3ccc(F)cc3)c3ccc(F)cc3)CC1)CC2
**A:** inactive

**Q:** # repeat for COC(=O)c1c(OC(=O)c2ccccc2)noc1CC(=O)OC1C=CCCC1 (stereo unspecified)
**A:** inactive

====

Recorded GI50 by entry
# System: HT-29
# assay info: NCI tumour cell line growth inhibition, 48 h
The source made the active and inactive calls. Rule as the data show it: active = GI50 up to about 1.1 µM and inactive = higher.

Consider the following illustrative entries.
Clc1nc(Cl)nc(Nc2cccc3ccccc23)n1 : > 10 µM (inactive)
COc1cc(/C=N\c2nc(-c3ccc(NS(=O)(=O)c4ccc(Cl)c(OC)c4)cc3)cs2)ccc1O : > 100 µM (inactive)
Oc1ncc(Cl)c(O)n1 : > 100 µM (inactive)

For the next question, use this molecule.
**Q:** # GI50 lookup, item COc1ccc(NCc2c(O)ccc3ccccc23)cc1
**A:** 21.6 µM (inactive)

====

# Test system: CCRF-CEM
# assay info: NCI tumour cell line growth inhibition, 48 h
Activity calls are given as the source filed them. Cut-off read from the data, not from the text of the source: active = GI50 up to about 1.1 µM and inactive = higher.
Just give me one of these, please: active, inactive

Observe how each entry below is paired with its result.
CCOC(=O)CNC1C(NC(C)=O)C(OC)OC2COC(c3ccccc3)OC21 (configuration not stated) : inactive
COCOc1cc(OC)ccc1C/C(=N/O)C(=O)OC : inactive
O=c1ccn2n1CCCCC2 : inactive
CC(=O)C1C(=O)C(=O)N(c2ccccc2)C1=O (configuration not stated) : inactive

**Q:** Hi, sorry to bother you, what did the test record for COc1ccccc1C1SCC(=O)N1c1ccc(-n2c(-c3ccccc3)nc3ccccc3c2=O)cc1 (configuration not stated) ?
**A:** inactive

**Q:** # repeat for CCC12CCCN3CCc4c(n(c5ccccc45)C(O)(C(=O)OC)C1)C32 (configuration not stated)
**A:** inactive

====

# Tested on: LOX IMVI
# assay info: NCI tumour cell line growth inhibition, 48 h
Active and inactive are the calls of the source. Cut-off read from the data, not from the text of the source: active = GI50 up to about 1.1 µM and inactive = higher.
Just give me one of these, please: active, inactive

COc1cc(C(=O)N(C(=O)N2CCCCC2)c2ccccc2)cc(OC)c1OC : inactive

**Q:** Hi, sorry to bother you, what did the test record for COc1ccc(/N=N/C(=O)NC(CC(C)C)C(=O)NC(Cc2ccccc2)C(=O)O)cc1 (stereo not drawn) ?
**A:** inactive

**Q:** # repeat for C=C1c2ccccc2C(=O)c2c1c1c(C(=O)OC)c(O)ccc1n2Cc1ccccc1
**A:** active

**Q:** # repeat for CC(C)C1NC(=O)CC(c2ccccc2)N(N=O)C1c1ccccc1 (stereo not drawn)
**A:** inactive

**Q:** # repeat for CC(C)c1ccccc1NC(=O)/C(Cl)=C1/Sc2ccccc2NC1=O
**A:** inactive

**Q:** # repeat for O=C1C(NS(=O)(=O)c2ccccc2)=C(n2cnc3ccccc32)C(=O)c2ccccc21
**A:** inactive

**Q:** # repeat for COC(=O)c1cc(-c2ccc(-c3ccc(O)cc3)cc2)cc(-c2ccc(-c3ccc(O)cc3)cc2)c1
**A:** inactive

**Q:** # repeat for O=c1cc(N2CCOCC2)oc2c(-c3ccccc3)cccc12 [LY-294002]
**A:** inactive

**Q:** # repeat for CN(C)CCn1c2c(c3ccccc31)CCc1ccccc1-2
**A:** inactive

**Q:** # repeat for COc1ccc(C2Oc3c(cc(O)c(OC)c3C)[C@@H]2C)cc1OC (stereo partly drawn)
**A:** inactive

====

# Tested on: SK-MEL-2
# assay info: NCI tumour cell line growth inhibition, 48 h
Calls of active or inactive are those of the source. No stated cut-off is given here; in the data, active = GI50 up to about 1.1 µM and inactive = higher.
measurement name: GI50

CCOC(=O)/C=C(/C(=O)OCC)n1c(=O)c(C)cn(C2CC(N=[N+]=[N-])C(CO)O2)c1=O (centres undefined) : 19.5 µM (inactive)
COc1ccc(OC)c(C(Cc2ccnc3ccccc23)Cc2ccnc3ccccc23)c1 : 9.73 µM (inactive)
NC1CC(N)c2c(Br)sc(Br)c21 (centres undefined) : > 100 µM (inactive)

For the next question, use this compound.
**Q:** # GI50 lookup, item CC(C)C(NCc1c(O)ccc2c(-c3ccccc3)cc(=O)oc12)C(=O)O (centres undefined)
**A:** > 100 µM (inactive)

====

# Tested on: CAKI-1
# assay info: NCI tumour cell line growth inhibition, 48 h
Active and inactive are the calls of the source. Rule as the data show it: active = GI50 up to about 1.1 µM and inactive = higher.
Recorded GI50 by entry

Consider the following illustrative entries.
COC(=O)C(Cc1ccc(Oc2cc(CC(NC(=O)c3ccccc3)C(=O)OC)ccc2OC)cc1)NC(=O)c1ccccc1 (stereo unspecified) : 54.8 µM (inactive)
COc1cc(/C=C2\[C@H]3c4c(c(OC)c(C)c(OC)c4OC)C[C@@H](C(=O)N2Cc2ccccc2)N3C(=O)OCC(C)C)c(OC)c(C)c1OC : 23.6 µM (inactive)
C[C@@H]1[C@H](c2ccccc2)O[B-]2(c3ccc(Br)cc3)OC(=O)C[N+]12C (stereo partly specified) : 53.3 µM (inactive)

**Q:** # GI50 lookup, item C=CCc1cc(-c2cc(CC=C)c(O)c(CN(CC)CC)c2)cc(CN(CC)CC)c1O
**A:** 50.2 µM (inactive)

**Q:** # repeat for O=C1CCC2CCC1C2 (stereo unspecified)
**A:** > 100 µM (inactive)

**Q:** # repeat for CC(=O)Nc1cc2nc3n(c2cc1C)CCC3OC(C)=O (stereo unspecified)
**A:** > 100 µM (inactive)

====

# Tested on: HCC 2998
# assay info: NCI tumour cell line growth inhibition, 48 h
Active and inactive are the calls of the source. Rule as the data show it: active = GI50 up to about 1.1 µM and inactive = higher.
measurement name: GI50

Nc1c(Br)cc(-c2nc3ccccc3s2)cc1Br : 30.6 µM (inactive)
Cc1cc(=O)nc(Sc2ccc([N+](=O)[O-])cc2[N+](=O)[O-])[nH]1 : 16.3 µM (inactive)
COc1ccc(C2C(C)C(=O)C(C)C(c3ccc(OC)cc3)N2N=O)cc1 (stereo unspecified) : > 750 µM (inactive)

**Q:** # GI50 lookup, item CCCCCCCCCC/C=C/CC(=O)SCCNC(=O)CCNC(=O)[C@@H](O)C(C)(C)COP(=O)(O)OP(=O)(O)OCC1OC(n2cnc3c(N)ncnc32)C(O)C1OP(=O)(O)O (stereo partly specified)
**A:** > 10 µM (inactive)

====

# Tested on: SW-620
# assay info: NCI tumour cell line growth inhibition, 48 h
The source made the active and inactive calls. Cut-off read from the data, not from the text of the source: active = GI50 up to about 1.1 µM and inactive = higher.
Recorded GI50 by entry

O=c1/c(=C/c2ccccc2F)sc2nc3ccccc3n12 : > 100 µM (inactive)
CCCCN(CCCC)/C(=N\C#N)NCc1ccccc1 : 15.8 µM (inactive)
COc1ccc(C2N(c3ccc(C)c(N=C=O)c3)C(=O)N3C(c4ccc(OC)cc4)N(c4ccc(C)c(N=C=O)c4)C(=O)N23)cc1 (stereo not drawn) : > 100 µM (inactive)
COC(=O)CNC(=O)CCC(C)[C@H]1CCC2C3C(C[C@H](OC(C)=O)[C@@]21C)[C@@]1(C)CCC2(C[C@H]1C[C@H]3OC(C)=O)OOC1(CCCCC1)OO2 (stereo partly drawn) : 2.24 µM (inactive)
CNc1ccc(Cl)cc1S(=O)(=O)c1ccccc1[N+](=O)[O-] : > 100 µM (inactive)

**Q:** SW-620 / GI50 / O=C(O)c1ccccc1/N=N\c1c(O)c(S(=O)(=O)O)cc2cc(S(=O)(=O)O)ccc12 : value?
**A:** 1.85 µM (inactive)

**Q:** # repeat for Cc1ccc(C(=O)/C=C(O)/C(O)=C/C(=O)c2ccc(C)cc2C)c(C)c1
**A:** 2.37 µM (inactive)

**Q:** # repeat for CC(=O)OCc1cc(OC(C)=O)c2cc3c(OC(C)=O)cccc3c(OC(C)=O)c2c1
**A:** 12.2 µM (inactive)

**Q:** # repeat for O=C(/C=C/c1cccs1)c1ccc(Cl)s1
**A:** 23.3 µM (inactive)

**Q:** # repeat for COC(=O)c1cc(-c2ccc(-c3ccc(O)cc3)cc2)cc(-c2ccc(-c3ccc(O)cc3)cc2)c1
**A:** 7.11 µM (inactive)

**Q:** # repeat for CC1(C)CC(=O)c2c(oc3cc(O)c(O)cc23)C1
**A:** 19.1 µM (inactive)

**Q:** # repeat for C=CCc1cc(OC)c2c(c1)C(OC)CC(c1ccc(OC)c(OC)c1)O2 (stereo not drawn)
**A:** > 100 µM (inactive)

src = ChEMBL document CHEMBL1201862
